target.under.test: Gastrin/cholecystokinin type B receptor (Homo sapiens, UniProt P32239)
Sequence (P32239 whole entry): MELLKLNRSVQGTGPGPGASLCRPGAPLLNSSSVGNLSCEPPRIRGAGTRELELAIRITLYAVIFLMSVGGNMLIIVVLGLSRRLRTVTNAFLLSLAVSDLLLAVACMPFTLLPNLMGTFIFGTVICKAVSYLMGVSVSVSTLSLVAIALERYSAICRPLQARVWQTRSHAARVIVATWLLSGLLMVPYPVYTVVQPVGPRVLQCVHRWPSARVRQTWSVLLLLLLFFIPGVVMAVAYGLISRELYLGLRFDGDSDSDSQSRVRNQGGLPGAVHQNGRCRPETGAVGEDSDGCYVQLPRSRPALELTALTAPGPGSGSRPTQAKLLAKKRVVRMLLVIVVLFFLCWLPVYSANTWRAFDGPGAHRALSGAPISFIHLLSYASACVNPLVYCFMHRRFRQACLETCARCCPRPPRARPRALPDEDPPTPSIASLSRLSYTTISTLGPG
procedure.details: Displacement of [125I]BH-CCK-8S from human recombinant CCK2 receptor expressed in NIH3T3 cells
reported.metric: log10 of Ki (log10 of the value in nM)

- structure.smiles: "Cc1ccccc1C(=O)CN1C(=O)N(CC(=O)Nc2cccc(C(=O)O)c2)N=C(C2CCCCC2)c2ccccc21"
  value.observed: 0.88
- structure.smiles: "CC(C)(C)C(=O)CN1C(=O)N(CC(=O)Nc2cccc3c2cnn3CC(=O)O)N=C(C2CCCCC2)c2ccccc21"
  value.observed: 0.44
- structure.smiles: "CC(C)(C)C(=O)CN1C(=O)N(CC(=O)Nc2ccc3ncn(CC(=O)O)c3c2)N=C(C2CCCCC2)c2ccccc21"
  value.observed: 1.23
- structure.smiles: "CN1C(=O)N(CC(=O)Nc2cccc(C(=O)O)c2)N=C(C2CCCCC2)c2ccccc21"
  value.observed: 3.08
- structure.smiles: "CC(C)(C)C(=O)CN1C(=O)N(CC(=O)Nc2cccc3c2ccn3CC(=O)O)N=C(C2CCCCC2)c2ccccc21"
  value.observed: 0.78
- structure.smiles: "CC(C)(C)C(=O)CN1C(=O)N(CC(=O)Nc2cccc(-c3csc(C(=O)O)n3)c2)N=C(C2CCCCC2)c2ccccc21"
  value.observed: -0.18
- structure.smiles: "CC(C)(C)C(=O)CN1C(=O)N(CC(=O)Nc2cccc(-c3nc(C(=O)O)co3)c2)N=C(C2CCCCC2)c2ccccc21"
  value.observed: -0.44
- structure.smiles: "CCOCCN1C(=O)N(CC(=O)Nc2cccc(C(=O)O)c2)N=C(C2CCCCC2)c2ccccc21"
  value.observed: 2.69
- structure.smiles: "CC(C)(C)C(=O)CN1C(=O)N(CC(=O)Nc2ccc3ccn(CC(=O)O)c3c2)N=C(C2CCCCC2)c2ccccc21"
  value.observed: -0.53
- structure.smiles: "O=C(O)CCc1cccc(NC(=O)CN2N=C(C3CCCCC3)c3ccccc3N(CC(=O)C3CCCC3)C2=O)c1"
  value.observed: -0.47
- structure.smiles: "CC(C)(C)C(=O)CN1C(=O)N(CC(=O)Nc2cccc(Cc3nnn[nH]3)c2)N=C(C2CCCCC2)c2ccccc21"
  value.observed: 0.67
- structure.smiles: "O=C(O)c1cccc(NC(=O)c2nc(C3CCCCC3)[nH]c2COC23CC4CC(CC(C4)C2)C3)c1"
  value.observed: 1.29
- structure.smiles: "O=C(CN1N=C(C2CCCCC2)c2ccccc2N(CC(=O)C2CCCC2)C1=O)Nc1cccc(-c2nc(=O)o[nH]2)c1"
  value.observed: -0.97
- structure.smiles: "CC(C)(C)C(=O)CN1C(=O)N(CC(=O)Nc2cccc(C(=O)O)c2)N=C(C2CCCCCC2)c2ccccc21"
  value.observed: 0.68
- structure.smiles: "CC(C)CCN1C(=O)N(CC(=O)Nc2cccc(C(=O)O)c2)N=C(C2CCCCC2)c2ccccc21"
  value.observed: 1.31
- structure.smiles: "O=C(CN1N=C(C2CCCCC2)c2ccccc2N(CC(=O)C23CC4CC(CC(C4)C2)C3)C1=O)Nc1cccc(C(=O)O)c1"
  value.observed: 0.75
